System: PPARg:RXRa 30nM:10nM, anti-RXR (NR concentration 30 nM, RXRa partner concentration 10 nM)
Assay: PBM binding z-score (relative to random genomic background probes); higher = stronger binding; sequences stand for … in GC…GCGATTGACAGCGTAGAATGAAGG
Class boundaries, taken from values of PBM binding z-score, are as follows: range 1 = under 0.3, range 2 = from 0.3 up to 2, range 3 = 2 and over

# Sequence Code, Label Class
rows = [
    ("CCTTACGGGGCACGAGGTTATAGCACGACGAGCG", "range 1"),
    ("CTCGAAAGGTCGGTTTAGGTGAGTATACGGATAA", "range 1"),
    ("CTACCAAGGTGAACACGGTCGTTGATTACTATTC", "range 1"),
    ("CCTACTGGGCCATTCAGAGGTCATTGAGCATATG", "range 2"),
    ("AGAATGAGGATATACGTAGATCAGGGAAGAAAGT", "range 1"),
    ("CCTTACGGGTCACGAGCTTATAGCACGACGAGCG", "range 3"),
    ("CGAACGAGGGCATGAGTTTATAGCAAATGCCGAT", "range 1"),
    ("CAGCCTCGGTCAGGGCCAGTATAGGAGGAACGTT", "range 1"),
    ("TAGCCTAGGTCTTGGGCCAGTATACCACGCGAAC", "range 1"),
    ("AGAACGAGGGCAATGAGTTGATAGCACGGGTGGC", "range 1"),
    ("AGAATGAGGTTACCAAAGATCAGGTAAACGCTTG", "range 2"),
    ("TTACCAAGGTTAGCTGAGGTCGTTGATCCAACTC", "range 1"),
    ("CCTCGGAGGACAGAATGTCAGAGCTGTCCGCTTT", "range 1"),
    ("CGTCCAAGGTCAGAGTGGTCAGTGAATGCCGAGT", "range 1"),
    ("TCATATAGGTAAAGTTGAAAGTCGAACGATATGA", "range 3"),
    ("CCAACTGGGGCAGAAAGGTTACCATACCATCCGG", "range 2"),
    ("GGTAGTTGGTCAGTAAAAGGTCACACACCGGTCG", "range 3"),
    ("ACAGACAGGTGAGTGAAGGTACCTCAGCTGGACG", "range 1"),
    ("TGTAAAAGTTCAAAGGTAACGTAAGTATCCACAC", "range 3"),
    ("GATACAGGGTCAGCTAGAGACCAGAGTATGGAAA", "range 2"),
    ("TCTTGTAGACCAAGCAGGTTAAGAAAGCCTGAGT", "range 3"),
    ("TCATATAGGTAAACAGGTGAAAGTACGTAAGTTA", "range 3"),
    ("CCTACTGGGCCAAAGGTCATTGCTTCCAATGCTC", "range 3"),
    ("CCTCGGAGGACAAGAGGAGGTCAGAGCTGCCAGA", "range 1"),
    ("GTACCAAGGTGAATAGGTCGATGATGAGTAGGCG", "range 2"),
    ("TCTGCTAAGTCAGTTGGTCAGCTAACGAGCTGCC", "range 2"),
    ("CGTCCAAGGTCAAGGTCAGTGACAGAGACTCGAA", "range 3"),
    ("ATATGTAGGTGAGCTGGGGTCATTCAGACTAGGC", "range 3"),
    ("CGTCCAAGGTCATAGGAGGTCAGTCAAGACAGAT", "range 3"),
    ("CGTCCAAGGTCAATGCTAGGTCCGTGAAAGCATT", "range 2"),
    ("TTACCACGGTGAAGGTCGTTGATCCCTCTGTAGA", "range 2"),
    ("ACTAGTTGGTCAGATGAGGTCACACACAATTCGG", "range 2"),
    ("TCTGCTAGTTCAACGATGGTCAGCTAATCTGCTA", "range 2"),
    ("ATATGTAGGTTACATTCGGGTCATTCAGGCTATG", "range 3"),
    ("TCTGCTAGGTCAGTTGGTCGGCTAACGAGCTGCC", "range 2"),
    ("CGTCCAATGTCATAGGAGGTCAGTGAAGACAGAT", "range 1"),
    ("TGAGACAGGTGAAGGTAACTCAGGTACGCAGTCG", "range 1"),
    ("CCTCGGAGGACATCAGGAGGTCAGAGCTGCCAGA", "range 1"),
    ("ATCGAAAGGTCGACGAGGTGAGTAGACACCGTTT", "range 2"),
    ("ACAGACAGGTGAGTGATGGTAACTCAGCTGGACG", "range 1"),
    ("CCTACTGGGCCACAAAAGGTCATTGATTCAGTGA", "range 2"),
    ("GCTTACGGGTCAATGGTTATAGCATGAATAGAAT", "range 2"),
    ("TCATATAGGTAAATGCTAGGAGAAAGTCCGATCT", "range 3"),
    ("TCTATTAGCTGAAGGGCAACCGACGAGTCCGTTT", "range 3"),
    ("CCTAGTTGGTCAAGGTCACACAGGCTATAGGTAC", "range 2"),
    ("CAACCTAGGTCAAGAGGTCAAAGTCCGCTTCCCG", "range 3"),
    ("CCTTCCGGGTCAAGGTTATAGCACGGGTGGTACG", "range 3"),
    ("CCGACTGGGGTATAAGGTTACCATAAGCCAGCCC", "range 2"),
    ("TCTTGTAGATCAATAGACGTTAAGAAAGTGCGCT", "range 3"),
    ("TGAATGAGGTTATAAGGTCAGGGAACGTTGCAAA", "range 3"),
]
